# procedure text: Beagle PK (pharmacokinetics)
# Assay type: in vivo, beagle dogs
# condition: whole blood; Beagle dog, IV 1 mg/kg, 0.25 hr; read-out: Blood drug concentration
I'd appreciate it if you could supply concentration at 0.25 hr values for the items below.

CC(C)(O)COc1ccc(F)c(-c2ccnc(N3CCC(C(=O)N4N=CC[C@H]4c4cc(F)cc(F)c4)CC3)c2)c1 (racemic) ... 451 ng/mL

# ---- query compound ----
Ask | Look up concentration at 0.25 hr for this compound: O=C(C1CCN(c2cc(-c3cc(OCCCO)ccc3F)ccn2)CC1)N1N=CCC1c1cc(F)cc(F)c1 (racemic)
Reply | 575 ng/mL
